Tested on: Staphylococcus sp.
Experiment: in vitro antibacterial evaluation, MIC by broth dilution
Type: cell-based
Conditions: strain GC 3053; broth dilution, 18 hours at 35° C.
Text: Methods for in vitro Antibacterial Evaluation (Table 1) […]
result_type: MIC Staphylococcus aureus (GC 3053) (µg/mL)
Answer with a number only, understood to be in µg/mL.

Provide MIC Staphylococcus aureus (GC 3053) value for the following compound: N=C1NCC(C(O)C2NC(=O)C(Cc3ccc(OC4OC(CO)C(OC5OC6COC7(OC6C(O)C5O)C5CC6CC(C5)CC7C6)C(O)C4O)cc3)NC(=O)C(Cc3ccccc3)NC(=O)CNC(=O)C(CO)NC(=O)C(C(O)C3CNC(=N)N3C3OC(CO)C(O)C(O)C3O)NC2=O)N1 (centres unmarked)
1

Provide MIC Staphylococcus aureus (GC 3053) value for the following compound: CC(c1ccccc1)C1NC(=O)CNC(=O)C(CO)NC(=O)C(C(O)C2CNC(=N)N2C2OC(CO)C(O)C(O)C2O)NC(=O)C(C(O)C2CNC(=N)N2)NC(=O)C(Cc2ccc(OC3OC(CO)C(OC4OC5COC6(OC5C(O)C4O)C(C)CCCC6C)C(O)C3O)cc2)NC1=O (centres unmarked)
1

Provide MIC Staphylococcus aureus (GC 3053) value for the following compound: CC(c1ccccc1)C1NC(=O)CNC(=O)C(CO)NC(=O)C(C(O)C2CNC(=N)N2C2OC(CO)C(O)C(O)C2O)NC(=O)C(C(O)C2CNC(=N)N2)NC(=O)C(Cc2ccc(OC3OC(CO)C(OC4OC5COC6(CC7CCC6(C)C7(C)C)OC5C(O)C4O)C(O)C3O)cc2)NC1=O (centres unmarked)
1

Provide MIC Staphylococcus aureus (GC 3053) value for the following compound: CC(c1ccccc1)C1NC(=O)CNC(=O)C(CO)NC(=O)C(C(O)C2CNC(=N)N2C2OC(CO)C(O)C(O)C2O)NC(=O)C(C(O)C2CNC(=N)N2)NC(=O)C(Cc2ccc3oc(-c4ccc(C(C)(C)C)cc4)nc3c2)NC1=O (centres unmarked)
4

Provide MIC Staphylococcus aureus (GC 3053) value for the following compound: CC(c1ccccc1)C1NC(=O)CNC(=O)C(CO)NC(=O)C(C(O)C2CN(c3ncccn3)C(=N)N2C2OC(CO)C(O)C(O)C2O)NC(=O)C(C(O)C2CNC(=Nc3ncccn3)N2)NC(=O)C(Cc2ccc(OC3OC(CO)C(OC4OC5COC6(OC5C(O)C4O)C4CC5CC(C4)CC6C5)C(O)C3O)cc2)NC1=O (centres unmarked)
32

Provide MIC Staphylococcus aureus (GC 3053) value for the following compound: CC(c1ccccc1)C1NC(=O)CNC(=O)C(CO)NC(=O)C(CC2CN(Cc3ccccc3)C(=N)N2C2OC(CO)C(O)C(O)C2O)NC(=O)C(CC2CNC(=N)N2)NC(=O)C(Cc2ccc(OC3OC(CO)C(OC4OC5COC6(OC5C(O)C4O)C4CC5CC(C4)CC6C5)C(O)C3O)cc2)NC1=O (centres unmarked)
64
